# Method Description: Pharmacokinetic studies in the mouse (i.v. clearance, plasma levels)
# Type: in vivo
# Test Context: CD-1, plasma, iv; mouse, 25 mg/kg
Endpoint: clearance (mL/min/kg)

Solved entries:
{"columns": ["Compound", "clearance (mL/min/kg)"],
 "data": [
  ["O=C[C@H](CCC(=O)O)NC(=O)[C@@H]1CCCN2C(=O)CC[C@H](NC(=O)c3ccccc3)C(=O)N12 [Compound 235e]", 36],
  ["CC(=O)N1C[C@H](NC(=O)c2ccc3ccccc3c2)C(=O)N(CC(=O)N[C@H](C=O)CC(=O)O)c2ccccc21 [Compound 605n]", 28],
  ["COC(=O)N[C@H]1CCC(=O)N2CCC[C@@H](C(=O)N[C@@H](CC(=O)O)C(=O)COC(=O)c3c(Cl)cccc3Cl)N2C1=O [Compound 284]", 77]
]}

(P) COc1cc(C(=O)N[C@H]2CCC(=O)N3CCC[C@@H](C(=O)N[C@H](C=O)CC(=O)O)N3C2=O)cc(OC)c1OC [Compound 417]
(Q) CC(=O)N[C@H]1CCC(=O)N2CCC[C@@H](C(=O)N[C@@H](CC(=O)O)C(=O)COC(=O)c3c(Cl)cccc3Cl)N2C1=O [Compound 217c]
Query string: Param pair: P , Q . Output: the one whose clearance is numerically greater. Mark your answer with the label of the selected entry.
Result string: Q

(1) O=C[C@H](CC(=O)O)NC(=O)CN1C(=O)[C@@H](NC(=O)c2ccccc2)CN(C(=O)Cc2ccccc2)c2ccccc21 [Compound 605b]
(2) O=C[C@H](CC(=O)O)NC(=O)CN1C(=O)[C@@H](NC(=O)c2ccccc2)CN(C(=O)c2ccccc2)c2ccccc21 [Compound 605c]
Query string: Param pair: 1 , 2 . Output: the one whose clearance is numerically greater. Mark your answer with the label of the selected entry.
Result string: 1
(1: 97 mL/min/kg, 2: 37 mL/min/kg)

(a) O=C[C@H](CC(=O)O)NC(=O)[C@@H]1CCCN2C(=O)CC[C@H](NC(=O)c3cccc4ccccc34)C(=O)N12 [Compound 408]
(b) O=C(O)C[C@H](NC(=O)[C@@H]1CCCN2C(=O)CC[C@H](NC(=O)c3ccccc3)C(=O)N12)C(=O)c1nc2cc(Cl)cc(Cl)c2o1 [Compound 223e]
Query string: // task: argmin of clearance over [ a , b ] Mark your answer with the label of the selected entry.
Result string: a
